- TEST NAME: yeast display, Sf9 membrane polyspecificity reagent, FACS + sequencing; frameworks hold sequencing errors
MEASURED QUANTITY: polyreactivity (PSR sort gate)

QVQLVESGGGLVQAGGSLRLSCAASGSIFLSYGMGRYRQAPGKERELVATITWSGGSTTYADSVKGRFTISRDNAKNTVYLQMNSLKPEDTAVYYCIALYDVWITLLTYTSSDYWGQGTQVTVSS    low polyreactivity
QVQLVESGGGLVQAGGSLRLSCAASGSTFYVNAMGWYRQAPGKERELVARITENGGITYYADSVKGRFTISRDNAKNTVYLQMNSLKPEDTAVYYCNTVQYRNEMGYWGQGTQVTVSS    high polyreactivity
QVQLVESGGRLRQAGGSLRLSCAASGSTFVSYAMGWYRQAPGKERELVAAISTSGGRSYYADSVKGRFTISRDNAKNTVYLQMNSLKREDTAVYYCAAEHYQRWWPYWYWPYYWGQGTQVTVSS    high polyreactivity
QVQLVESGGGLVQAGGSLRLSCAASGFTFRLYVMGWYIQAPGKERELVAAISSRGGSTYYADSLKGRFTISRDNAKNTVNLQMNSLKPEDTAVYYCAADRPRGRETVDYWGQGTQVTVSS    high polyreactivity

# per-item lookup of polyreactivity (PSR sort gate); items listed below
1. QVQLVESVGGLVQAGGSLRLSCAASGSIFTRNTMGWYRQAPGKERELVAAISGGGSSTYYADSVKGRFTISRDNAKNTVYLQMNSLKPEETAVYYCAASLSRNYGYACYEYWGQGTQVTVSS
2. QVQLVESGGGLVQPGGSLRLSCAASGRNSTYTMGWYRQAPGKERELVATISTDASTNYADSVKGRFTISRDNAKNTVYLQMNSLKPEDTAVYYCAAVIVNQDYDYWGQGTQVTVSS
3. QVQLVESGGGLVQAGGSLRLSCAASGFIFPGYTMGWYRQAPGKERELVAAISRGSSTYYADSVKRRFTISRDNAKNSVYLQMNSLKPEDTAVYYCAADYSYIYGFDYWGQGTQVTVSS
4. QVQLVESGGGLVQAGGSLRLSCAATGFTFSYYALGWYRQAPGKERELVAVISDRGGITYYADSVKGRFTISRDNAKNTVYLQMNSLKPEDTADYYCAAQNPRYNYRYYYWGHGTQVTVSS
5. QVQLVESGGGLDQAGGSLRLSCAASGRIFYPYTMGWYRQAPGKERELVAAISSTGRTNYADSVKGRFTISRDNAKNTVYLQMNSLKPEDTAVYYCAKRYRKYSLGPPGNDYWGQGTQVTVSS
6. QVQLVESGGGLVQAGGSLRLSCAASGRILYVNTMGWYRQAPGKERELVAGITSRVGSTYYADSVKGRFTISRDNGKNTVYLQMKSLKPEYTAVYYCNARSTWRHRRDQVDFDYWGQGTQVTVSS
7. QVQLVESGGGLVQAGGSLRLSCAASGRTSKVYAMGWYRQAPGKERELVARITSSGVRTYYADSVKGRFTISRDNAKNTVYLQMNSLKPEDTAVYYCAKDARALWLHSGIYDYWGQGTQVTVSS

Data returned:
high polyreactivity
low polyreactivity
low polyreactivity
low polyreactivity
high polyreactivity
low polyreactivity
low polyreactivity
